Reference source for all entries: a melting point compilation (Tetko et al.; mined from patent text by program, amines drawn as free bases though some values may be those of a salt)

Listed molecules paired with reported melting point

Reference set (10 entries):
- C=Cc1cnc2c(NC(=O)c3c(Cl)cccc3Cl)cccc2c1Cn1ccnc1: 189 to 191 °C
- Cc1cc(CO)nc(N2CCN(c3ccnc([C@@H](C)O)n3)CC2)n1: 139 to 140 °C
- Nc1ncccc1-c1nc2cc(Br)cnc2n1-c1ccc(NC(=O)c2ccccc2)cc1: 242 to 244 °C
- CC1(C(=O)Nc2ccc(C3=NNC(=O)C4CC34)cc2)CC1 (stereo unspecified): 253 to 255 °C
- CCCCOCc1cc2ccccc2oc1=Nc1ccccc1: 86 to 88 °C
- O=C(O)c1ccc(C(=O)c2cccnc2)cc1: 266 to 267 °C
- O=C1NC(=O)C(SCCO)=C1SCCO: 46 to 50 °C
- NCC(c1ccc(Cl)c(Cl)c1)C1CCCCC1O (mixture of isomers): 117 to 118 °C
- COc1ccc2c(c1)CC(CNC(=O)Nc1c(C(C)C)cccc1C(C)C)CC2 (stereo unspecified): 171 to 172 °C
- O=C1CCC(N2C(=O)c3cccc(OCc4ccc(CN5CCSCC5)cc4)c3C2=O)C(=O)N1 (stereo unspecified): 221 to 223 °C

Pending molecule:
Can you share its melting point? I mean this molecule: COc1ccc2c(c1)c(-c1cc3c(C(=O)O)ccnc3[nH]1)cn2C > 300 °C
